Source: patent US9371331B2

# experimental_target: Y641N EZH2 (Homo sapiens, UniProt Q15910, Y641N)
# Sequence (Q15910 whole entry Y641N): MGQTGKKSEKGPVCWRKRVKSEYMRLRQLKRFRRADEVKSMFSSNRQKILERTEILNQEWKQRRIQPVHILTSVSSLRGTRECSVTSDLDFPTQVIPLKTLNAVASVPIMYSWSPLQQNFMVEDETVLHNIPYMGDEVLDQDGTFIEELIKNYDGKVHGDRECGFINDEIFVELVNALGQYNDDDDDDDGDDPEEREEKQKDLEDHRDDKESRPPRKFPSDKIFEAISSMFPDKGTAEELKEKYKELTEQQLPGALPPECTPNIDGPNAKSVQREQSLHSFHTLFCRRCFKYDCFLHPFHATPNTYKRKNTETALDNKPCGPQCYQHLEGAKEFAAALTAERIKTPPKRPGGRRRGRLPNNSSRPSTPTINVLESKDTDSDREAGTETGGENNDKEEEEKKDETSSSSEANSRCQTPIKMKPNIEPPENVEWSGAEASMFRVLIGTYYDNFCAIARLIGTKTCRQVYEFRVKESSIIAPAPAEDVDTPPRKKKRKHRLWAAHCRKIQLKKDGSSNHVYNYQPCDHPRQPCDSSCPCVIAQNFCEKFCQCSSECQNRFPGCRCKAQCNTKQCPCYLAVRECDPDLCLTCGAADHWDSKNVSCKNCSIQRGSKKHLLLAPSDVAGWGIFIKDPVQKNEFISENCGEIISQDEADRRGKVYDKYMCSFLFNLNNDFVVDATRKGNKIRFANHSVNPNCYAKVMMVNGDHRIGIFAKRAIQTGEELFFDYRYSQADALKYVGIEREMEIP
# Sequence (O75530 whole entry partner): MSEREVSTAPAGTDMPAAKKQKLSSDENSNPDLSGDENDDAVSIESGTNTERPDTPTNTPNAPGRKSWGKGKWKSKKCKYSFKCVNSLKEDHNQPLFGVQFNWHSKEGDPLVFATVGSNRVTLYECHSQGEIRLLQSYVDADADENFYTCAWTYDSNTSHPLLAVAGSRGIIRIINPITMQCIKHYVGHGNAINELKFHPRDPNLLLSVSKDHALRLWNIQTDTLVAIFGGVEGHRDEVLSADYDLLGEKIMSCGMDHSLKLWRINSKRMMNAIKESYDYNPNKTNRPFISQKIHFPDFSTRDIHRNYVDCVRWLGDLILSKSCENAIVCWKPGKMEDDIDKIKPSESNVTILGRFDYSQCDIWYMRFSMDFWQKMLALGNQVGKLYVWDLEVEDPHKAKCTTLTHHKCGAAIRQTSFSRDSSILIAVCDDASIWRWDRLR
# Sequence (Q15022 whole entry partner): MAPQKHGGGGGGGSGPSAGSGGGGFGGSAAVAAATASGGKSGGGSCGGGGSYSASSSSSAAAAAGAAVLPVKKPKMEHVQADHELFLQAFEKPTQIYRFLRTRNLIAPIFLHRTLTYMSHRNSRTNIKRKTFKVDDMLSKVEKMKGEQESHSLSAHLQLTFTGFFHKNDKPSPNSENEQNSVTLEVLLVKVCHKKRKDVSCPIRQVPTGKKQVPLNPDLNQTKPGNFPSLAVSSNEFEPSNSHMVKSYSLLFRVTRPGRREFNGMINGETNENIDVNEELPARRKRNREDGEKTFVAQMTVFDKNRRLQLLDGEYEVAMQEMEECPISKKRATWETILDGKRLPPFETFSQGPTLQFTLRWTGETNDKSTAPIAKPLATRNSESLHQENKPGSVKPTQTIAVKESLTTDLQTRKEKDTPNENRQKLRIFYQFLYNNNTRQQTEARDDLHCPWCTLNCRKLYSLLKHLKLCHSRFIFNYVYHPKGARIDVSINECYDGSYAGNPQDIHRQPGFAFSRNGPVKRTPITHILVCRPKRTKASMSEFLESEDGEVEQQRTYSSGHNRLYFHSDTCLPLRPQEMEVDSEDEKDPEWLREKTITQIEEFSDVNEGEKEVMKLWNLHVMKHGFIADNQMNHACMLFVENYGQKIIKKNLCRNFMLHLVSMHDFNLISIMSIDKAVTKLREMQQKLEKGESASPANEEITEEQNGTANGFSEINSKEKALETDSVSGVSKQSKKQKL
# assay_procedure: Y641N EZH2 assay: as EZH2 assay, with reconstituted H3K27Me2 oligonucleosomes as substrate
# Type: biochemical
# condition_context: Y641N EZH2 IC50, Y641N mutant EZH2, H3K27Me2 oligonucleosome substrate
property_label: IC50

Dear colleague, I am looking for the recorded IC50 of the following compound: Cc1cc(C)c(CNC(=O)c2c(C)n(C(C)c3cccc(-c4ccncn4)c3)c3ccccc23)c(=O)[nH]1 (racemic) [Compound 205]
100 to 1000 nM

Dear colleague, I am looking for the recorded IC50 of the following compound: COC[C@@H](C)n1c(C)c(C(=O)NCc2c(OC)cc(C)[nH]c2=O)c2cncnc21 [Compound 303]
100 to 1000 nM

Dear colleague, I am looking for the recorded IC50 of the following compound: COc1cc(C)[nH]c(=O)c1CNC(=O)c1c(C)n(C(C)C2(C)COC2)c2ccccc12 (racemic) [Compound 291]
100 to 1000 nM

Dear colleague, I am looking for the recorded IC50 of the following compound: COc1cc(C)[nH]c(=O)c1CNC(=O)c1c(C)n([C@@H](C)c2ccccc2)c2ncccc12 [Compound 276]
< 100 nM

Dear colleague, I am looking for the recorded IC50 of the following compound: Cc1cc(C)c(COC(=O)c2c(C)n(C3CCc4ccccc43)c3ccccc23)c(=O)[nH]1 (single isomer, unassigned) [Compound 213]
100 to 1000 nM

Dear colleague, I am looking for the recorded IC50 of the following compound: COc1cc(C)[nH]c(=O)c1CNC(=O)c1c(C)n(C(C)C2CCS(=O)(=O)CC2)c2ccccc12 (single isomer, unassigned) [Compound 305]
100 to 1000 nM

Dear colleague, I am looking for the recorded IC50 of the following compound: COc1cccc(C(C)n2c(C)c(C(=O)NCc3c(C)cc(C)[nH]c3=O)c3cccnc32)c1 (racemic) [Compound 206]
1000 to 10000 nM

Dear colleague, I am looking for the recorded IC50 of the following compound: Cc1cc(C)c(CNC(=O)c2c(C)n(C(C)c3cccc(C(N)=O)c3)c3ccccc23)c(=O)[nH]1 (single isomer, unassigned) [Compound 225]
< 100 nM

Dear colleague, I am looking for the recorded IC50 of the following compound: COc1cc(C)[nH]c(=O)c1CNC(=O)c1c(C)n(C(C)C2CCN(C)CC2)c2ccccc12 (single isomer, unassigned) [Compound 343]
< 100 nM

Dear colleague, I am looking for the recorded IC50 of the following compound: Cc1cc(C)c(CNC(=O)c2c(C)n(C(C)c3ccccc3)c3cnccc23)c(=O)[nH]1 (racemic) [Compound 203]
100 to 1000 nM

Dear colleague, I am looking for the recorded IC50 of the following compound: COc1cc(C)[nH]c(=O)c1CNC(=O)c1c(C)n(C(C)C2CCOCC2)c2cc(F)ccc12 (single isomer, unassigned) [Compound 300]
< 100 nM

Dear colleague, I am looking for the recorded IC50 of the following compound: COc1cc(C)[nH]c(=O)c1CNC(=O)c1c(C)n(C(C)C2CCN(C(=O)OCC(C)C)CC2)c2ccccc12 (single isomer, unassigned) [Compound 357]
< 100 nM

Dear colleague, I am looking for the recorded IC50 of the following compound: Cc1cc(C)c(CNC(=O)c2c(C)n(C(C)c3ccccc3)c3ncccc23)c(=O)[nH]1 (single isomer, unassigned) [Compound 116]
100 to 1000 nM

Dear colleague, I am looking for the recorded IC50 of the following compound: COc1cc(C)[nH]c(=O)c1CNC(=O)c1c(C)n(C2CCN(C(=O)OC(C)(C)C)CC2)c2ccccc12 [Compound 331]
100 to 1000 nM

Dear colleague, I am looking for the recorded IC50 of the following compound: CCS(=O)(=O)C1(C(C)n2c(C)c(C(=O)NCc3c(OC)cc(C)[nH]c3=O)c3ccccc32)CCNCC1 (single isomer, unassigned) [Compound 345]
< 100 nM

Dear colleague, I am looking for the recorded IC50 of the following compound: COc1ccccc1C(C)n1c(C)c(C(=O)NCc2c(C)cc(C)[nH]c2=O)c2ccccc21 (racemic) [Compound 186]
100 to 1000 nM

Dear colleague, I am looking for the recorded IC50 of the following compound: COc1cc(C)[nH]c(=O)c1CNC(=O)c1c(C)n(C(C)C2CCC(F)(F)CC2)c2ncncc12 (racemic) [Compound 334]
100 to 1000 nM

Dear colleague, I am looking for the recorded IC50 of the following compound: COc1cc(C)[nH]c(=O)c1CNC(=O)c1c(C)n(C(C)c2ccn(C)c(=O)c2)c2ncccc12 (single isomer, unassigned) [Compound 268]
100 to 1000 nM

Dear colleague, I am looking for the recorded IC50 of the following compound: COc1cc(C)[nH]c(=O)c1CNC(=O)c1c(C)n(C(C)C2CCN(CC(C)(C)O)CC2)c2ccccc12 (single isomer, unassigned) [Compound 352]
< 100 nM

Dear colleague, I am looking for the recorded IC50 of the following compound: COCC(C)(C)n1c(C)c(C(=O)NCc2c(OC)cc(C)[nH]c2=O)c2ccccc21 [Compound 338]
100 to 1000 nM

Dear colleague, I am looking for the recorded IC50 of the following compound: COCC(C)n1c(C)c(C(=O)NCc2c(OC)cc(C)[nH]c2=O)c2cccnc21 (single isomer, unassigned) [Compound 256]
100 to 1000 nM

Dear colleague, I am looking for the recorded IC50 of the following compound: COc1cc(C)[nH]c(=O)c1CNC(=O)c1c(C)n(C(C)c2ccn(C)c(=O)c2)c2ncccc12 (single isomer, unassigned) [Compound 269]
1000 to 10000 nM

Dear colleague, I am looking for the recorded IC50 of the following compound: Cc1cc(C)c(CNC(=O)c2c(C)n(C(C)c3cccc(C#N)c3)c3ccccc23)c(=O)[nH]1 (single isomer, unassigned) [Compound 227]
< 100 nM

Dear colleague, I am looking for the recorded IC50 of the following compound: COC(C)C(C)n1c(C)c(C(=O)NCc2c(C)cc(C)[nH]c2=O)c2cccnc21 (centres unmarked) [Compound 241]
100 to 1000 nM

Dear colleague, I am looking for the recorded IC50 of the following compound: CCC(OC)C(C)n1c(C)c(C(=O)NCc2c(OC)cc(C)[nH]c2=O)c2cccnc21 (centres unmarked) [Compound 293]
100 to 1000 nM

Dear colleague, I am looking for the recorded IC50 of the following compound: CCc1cc(OC)c(CNC(=O)c2c(C)n(C(C)COC)c3ncccc23)c(=O)[nH]1 (racemic) [Compound 280]
1000 to 10000 nM
